Origin of measurements: PubChem BioAssay AID397

- System under test: UniProt P55040
- Measurement notes: ligand-induced stabilization of human GEM GTPase – biophysical, DSF, SYPRO orange, purified protein (AID 397)
- Setup conditions: DSF SYPRO orange thermal shift, at 10 µM, protein 2 µM, buffer 10 mM HEPES, pH 7.5, NaCl 150 mM, DTT 1 mM, hits give high values
Item-by-item account of Tm shift

Sample answers from the record:
COC(=O)/C=C/c1cc(O)ccc1O :: 3.2 Celsius
O=c1c(-c2ccc(O)cc2)coc2cc(O)cc(O)c12 :: 5 Celsius

Task: Give recorded Tm shift with UniProt P55040 for the following compound: Oc1ccc(-c2nc(-c3ccc(F)cc3)c(-c3ccncc3)[nH]2)cc1
Output: 6 Celsius

Task: Can you check O=c1cc(-c2ccc(O)cc2)oc2cc(O)cc(O)c12 next?
Output: 4.1 Celsius

Task: And for COc1cc2ncnc(Nc3cccc(Br)c3)c2cc1OC ?
Output: 5.4 Celsius

====

- System under test: GTP-binding protein GEM (Homo sapiens)
- Measurement notes: ligand-induced stabilization of human GEM GTPase – biophysical, DSF, SYPRO orange, purified protein (AID 397)
- Setup conditions: DSF SYPRO orange thermal shift, at 10 µM, protein 2 µM, buffer 10 mM HEPES, pH 7.5, NaCl 150 mM, DTT 1000 µM, with dithiothreitol, hits give high values
Reported metric: Tm shift

Sample answers from the record:
C/C(O)=C(\C#N)C(=O)Nc1cc(Br)ccc1Br :: 2.2 Celsius
CC(C)n1cnc2c(Nc3cccc(Cl)c3)nc(NCCO)nc21 :: 2.3 Celsius
CC(O)(O)C1(O)C[C@@H]2O[C@@]1(C)n1c3ccccc3c3c4c(c5c6ccccc6n2c5c31)C(=O)NC4 (some centres undefined) :: 3 Celsius
N#CC(Cc1ccc(O)c(O)c1)C(=O)Nc1ccccc1 (centres undefined) :: 2.7 Celsius
CC[C@H](CO)Nc1nc(NCc2ccccc2)c2ncn(C(C)C)c2n1 :: 2.1 Celsius
CC(C)(C)c1nc2c3cc[nH]c(=O)c3c3cc(F)ccc3c2[nH]1 :: 3 Celsius

Task: Consider the compound CCCCc1c(-c2ccc(O)cc2)[nH]c2nccnc12 and give its measured Tm shift.
Output: 2.7 Celsius

Task: Same for O=C1Nc2ccccc2/C1=C\c1cnc[nH]1
Output: 2.5 Celsius

Task: Query C=C(Nc1cc(NC(=O)c2cccc(N(C)C)c2)ccc1C)c1ccc(O)cc1 next
Output: 2.8 Celsius

====

- System under test: GTP-binding protein GEM (Homo sapiens) (UniProt P55040)
- Sequence (P55040 whole entry, looked up): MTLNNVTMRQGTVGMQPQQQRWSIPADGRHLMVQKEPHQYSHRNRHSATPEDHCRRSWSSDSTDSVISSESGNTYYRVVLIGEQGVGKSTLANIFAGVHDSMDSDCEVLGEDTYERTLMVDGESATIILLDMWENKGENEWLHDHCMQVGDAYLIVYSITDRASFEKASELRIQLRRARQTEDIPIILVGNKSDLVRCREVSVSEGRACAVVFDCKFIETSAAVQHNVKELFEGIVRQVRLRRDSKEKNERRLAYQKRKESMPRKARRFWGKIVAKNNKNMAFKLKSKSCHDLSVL
- Measurement notes: ligand-induced stabilization of human GEM GTPase – biophysical, DSF, SYPRO orange, purified protein (AID 397)
- Setup conditions: DSF SYPRO orange thermal shift, at 10 µM, protein 2 µM, buffer 10 mM HEPES, pH 7.5, NaCl 150 mM, DTT 1 mM, hits give high values
Recorded Tm shift, one value per entry.

The examples below pair each entry with its known result.
NC1=N/C(=C2/CCNC(=O)c3[nH]c(Br)cc32)C(=O)N1 :: 3.1 Celsius
NC(=O)c1ccc(-c2nc(-c3ccc4c(c3)OCCO4)c(-c3ccccn3)[nH]2)cc1 :: 4.5 Celsius
Nc1cc2ncnc(Nc3cccc(Br)c3)c2cc1N :: 3.5 Celsius
CN(C)S(O)(O)c1ccc2c(c1)/C(=C/c1cc3c([nH]1)CCCC3)C(=O)N2 :: 3.1 Celsius

Now examine the next entry.
Task: If you can, please state the reported Tm shift value of CN(C)CCCn1cc(C2=C(c3c[nH]c4ccccc34)C(=O)NC2=O)c2ccccc21 .
Output: 3.2 Celsius

====

- System under test: GTP-binding protein GEM (Homo sapiens)
- Measurement notes: ligand-induced stabilization of human GEM GTPase – biophysical, DSF, SYPRO orange, purified protein (AID 397)
- Setup conditions: DSF SYPRO orange thermal shift, at 10 µM, protein 2 µM, buffer 10 mM HEPES, pH 7.5, NaCl 150 mM, DTT 1000 µM, with dithiothreitol, hits give high values
Reported metric: Tm shift

Examples with their reported Tm shift follow.
Oc1cc(O)cc(/C=C/c2ccc(O)c(O)c2)c1 :: 2.3 Celsius
Nc1[nH]nc2nc3ccccc3nc12 :: 2.5 Celsius
Ic1cccc(CSc2nnc(-c3ccncc3)o2)c1 :: 2.4 Celsius

Task: # Tm shift lookup, item N#C/C(=C(/N)Sc1ccc(N)cc1)c1ccccc1C(F)(F)F
Output: 2.8 Celsius

Task: Moving on to the next molecule: O=S(=O)(c1cccc2c(Cl)cccc12)N1CCCNCC1
Output: 2.8 Celsius
